Tested on: OVCAR-5
test-method-notes: NCI tumour cell line growth inhibition, 48 h
Where a name gives a salt, the structure may show the parent alone. Calls of active or inactive are those of the source. No stated cut-off is given here; in the data, active = GI50 up to about 1.1 µM and inactive = higher.
Outcomes: 1 (active), -1 (inactive)

>>> classification("CCOc1ccc(NC2=CC(=O)C(=O)c3ccccc32)cc1")
-1
>>> classification("COc1cc(/C=C(\\C#N)C(N)=O)cc(Br)c1O")
-1
>>> classification("COc1ccc2nc(-c3ccc(O)cc3)sc2c1")
-1
>>> classification("CC1C2CC(CC(=O)N2)C1(C)C (stereo not drawn)")
-1
>>> classification("Cc1ccc(C(=O)/C=C2\\Nc3c(c(=O)oc4ccccc34)N=C2NC23CC4CC(CC(C4)C2)C3)cc1")
-1
>>> classification("[O-][Cl+3]([O-])([O-])O.c1ccc(/N=c2\\nc(N3CCOCC3)ss2)cc1")
-1
>>> classification("COc1ccc2c(c1)C(N)=C(c1ccccc1)C2=O")
-1
>>> classification("COc1ccc(S(=O)(=O)c2ccccc2[N+](=O)[O-])cc1")
-1
>>> classification("CC(=O)CCC1(C(=O)OCC(C)C)CCCC1=O (stereo not drawn)")
-1
>>> classification("O=C1c2c(O)cccc2-c2nn(CCNCCO)c3ccc(NCCNCCO)c1c23 [LOSOXANTRONE HYDROCHLORIDE]")
1
>>> classification("N=c1oc2cc(O)ccc2cc1C(=O)Nc1ccccn1")
-1
>>> classification("CC1=NN(C(=O)c2ccc(Cl)cc2)C(=O)/C1=C/c1cccc([N+](=O)[O-])c1")
-1
>>> classification("CC1CCCP(=O)(c2ccccc2)CC1 (stereo not drawn)")
-1
>>> classification("O=C1c2cccc3c2C(=O)c2c(cccc21)OCCOCCOCCOCCO3")
-1
>>> classification("CO[C@H]1O[C@@H]2CO[C@@H](c3ccccc3)O[C@H]2[C@@H]2C/C=C\\CCC[C@@]12O")
-1
>>> classification("COc1ccc(NC(=O)CSc2nnc(Cc3ccccc3)o2)cc1")
-1
>>> classification("OC1C[C@H](c2ccccc2)C2(C(O)c3ccccc3C2O)[C@@H](c2ccccc2)C1 (stereo partly drawn)")
-1
>>> classification("COc1ccccc1Cn1c2c(c3cc(O)ccc31)C(=O)c1ccccc1C2=O")
-1

---

System: LOX IMVI
test-method-notes: NCI tumour cell line growth inhibition, 48 h
Active and inactive are the calls of the source. No stated cut-off is given here; in the data, active = GI50 up to about 1.1 µM and inactive = higher.
property-measured: GI50

>>> reported_measurement("Cc1cc(S(=O)(=O)N=C2N(Cc3ccccc3)CCN2Cc2ccccc2)c(S)cc1Cl")
"70.8 µM (inactive)"
>>> reported_measurement("O=c1ccn(C2OC(CO)C(P(=O)(O)O)C2O)c(=O)[nH]1 (stereo not given)")
"> 100 µM (inactive)"
>>> reported_measurement("c1ccc2c[n+](CCCC[n+]3ccc4ccccc4c3)ccc2c1")
"> 100 µM (inactive)"
>>> reported_measurement("COc1cc([C@@H]2c3cc4c(cc3[C@H](OC3OC5COC(C(C)C)OC5C(O)C3O)C3COC(=O)[C@@H]32)OCO4)cc(OC)c1OC (stereo not given in full)")
"3.01 µM (inactive)"
>>> reported_measurement("CCOc1ccc(NC2=CC(=O)C(=O)c3ccccc32)cc1")
"1.3 µM (inactive)"
>>> reported_measurement("COc1ccc(-c2nc3ccccc3c(=S)n2OC(C)=O)cc1")
"4.92 µM (inactive)"
>>> reported_measurement("COc1ccc2cc(C(C)C(=O)N3C(=O)OCC3(C)C)ccc2c1 (stereo not given)")
"> 100 µM (inactive)"
>>> reported_measurement("Cc1cccc2c1c1ccc3c(c1n2C)C(=O)C=CC3=O")
"4.94 µM (inactive)"
>>> reported_measurement("COC(=O)C(C(=O)C(=O)NC1Nc2ccc(C)cc2S1)c1nc2ccc(Cl)cc2nc1O (stereo not given)")
"> 100 µM (inactive)"
>>> reported_measurement("COc1cc(CCN(C)C)cc(OC)c1OC")
"> 100 µM (inactive)"
>>> reported_measurement("CCOC(=O)c1c(Br)c(-c2ccc([N+](=O)[O-])cc2)c(Br)n1C")
"> 10 µM (inactive)"
>>> reported_measurement("CCNCCCNc1c2ccccc2nc2ccccc12")
"0.251 µM (active)"
>>> reported_measurement("CCOC(=O)/C(C#N)=C(N)/C(=N\\Nc1cccc(C(F)(F)F)c1)C(=O)OCC")
"> 100 µM (inactive)"
>>> reported_measurement("COc1ccc2nc(-c3ccc(O)cc3)sc2c1")
"22.6 µM (inactive)"
>>> reported_measurement("O=C1C=C(Nc2ccccc2C(=O)CC(=O)C(=O)Nc2cccc(C(F)(F)F)c2)c2ccccc2C1=O")
"6.04 µM (inactive)"

---

System: SNB-78
test-method-notes: NCI tumour cell line growth inhibition, 48 h
Activity calls are given as the source filed them. No stated cut-off is given here; in the data, active = GI50 up to about 1.1 µM and inactive = higher.
Outcomes: Yes = active, No = inactive

>>> classification("O=c1ccc2ccccc2o1 [COUMARIN]")
"No"
>>> classification("COC(=O)C1=C(C(=O)OC)SC(=C(/N=N/c2ccccc2)c2ccccc2)S1")
"No"
>>> classification("O=C1c2cccc3c2C(=O)c2c(cccc21)OCCOCCOCCOCCO3")
"No"
>>> classification("CC(=O)OCc1c2ccccc2c(C)c2c1cc(F)c1ccccc12")
"No"
>>> classification("CC1COC(C)(C)P(=O)(c2ccccc2)C1 (configuration not stated)")
"No"
>>> classification("COC(=O)C(=O)C(CC(=O)Nc1cc(Cl)ccc1Cl)C(=O)OC (configuration not stated)")
"No"
>>> classification("COc1ccc(C(=O)C(C(=O)C(=O)NCCCNC(=O)C(=O)C(C(=O)c2ccc(OC)cc2)c2ccc(OC)cc2)c2ccc(OC)cc2)cc1 (configuration not stated)")
"No"
>>> classification("NC1=NC(=O)/C(=C/c2ccccc2[N+](=O)[O-])C(N)=N1")
"No"
>>> classification("CC(=O)Nc1ccc(-c2nnc(SCC(=O)Nc3ccccc3)o2)cc1")
"No"
>>> classification("Cc1ccc(NC(=O)/C(CC(=O)c2c[n+]([O-])c3ccccc3[n+]2[O-])=N\\NC(=O)C[n+]2ccccc2)cc1")
"No"
>>> classification("CCOc1ccccc1NC(=O)CC1SC(Nc2ccc([N+](=O)[O-])cc2)=NC1=O (configuration not stated)")
"No"
>>> classification("CC(=O)CC(=O)Nc1ccc(OS(N)(=O)=O)cc1")
"No"
>>> classification("CC(=O)N[C@@H]1C(O)CN2C(=O)C(=O)O[C@H](C(O)CO)[C@@H]12 (some centres not stated)")
"No"
>>> classification("CC1(C)C=C(N2CCN(C3=CC(C)(C)NC(C)(C)C3)CC2)CC(C)(C)N1")
"No"
>>> classification("COc1ccc(/C=N/Nc2nc(C)c3c(n2)Nc2ccccc2NC3=O)cc1")
"No"
>>> classification("CCN(CC)CCN1C(=O)c2c(c3c4cccc(Cl)c4n(C4OC(CO)C(OC)C(O)C4O)c3c3[nH]c4c(Cl)cccc4c23)C1=O (configuration not stated)")
"Yes"
>>> classification("CCOC(=O)COc1ccccc1/C=C1\\CCC(CN(C)C)C1=O (configuration not stated)")
"No"

---

Tested on: SF-295
test-method-notes: NCI tumour cell line growth inhibition, 48 h
Calls of active or inactive are those of the source. Cut-off read from the data, not from the text of the source: active = GI50 up to about 1.1 µM and inactive = higher.
Outcomes: y = active, n = inactive

>>> classification("CC(=O)CC(=O)Nc1ccc(OS(N)(=O)=O)cc1")
"n"
>>> classification("COc1ccc(-c2nc(-c3cc4ccccc4oc3=O)cs2)cc1")
"n"
>>> classification("COc1cc(C2c3cc4c(cc3OC(NCCO)C2C)OCO4)cc(OC)c1OC (configuration not stated)")
"y"
>>> classification("Oc1ccc(O)c(CNc2ccccc2)c1")
"n"
>>> classification("O=C1c2cccc3cccc(c23)C(=O)N1CCN(CCO)CCO")
"n"
>>> classification("CCOC(=O)COc1ccccc1/C=C1\\CCC(CN(C)C)C1=O (configuration not stated)")
"n"
>>> classification("CC(=O)N[C@@H]1C(O)CN2C(=O)C(=O)O[C@H](C(O)CO)[C@@H]12 (some centres not stated)")
"n"
>>> classification("CCN(CC)CCN1C(=O)c2c(c3c4cccc(Cl)c4n(C4OC(CO)C(OC)C(O)C4O)c3c3[nH]c4c(Cl)cccc4c23)C1=O (configuration not stated)")
"y"
>>> classification("C/C=C/c1cc(=O)c([C@@H]2OC(=O)c3cc(OC)cc(OC)c32)co1")
"n"
>>> classification("CSc1nc(-c2cc3c(c(SC)n2)CCCCC3)cc2c1CCCCC2")
"n"
>>> classification("O=C1c2cc3c(cc2CC12Cc1cc4c(cc1C2=O)CCC4)CCC3")
"n"
>>> classification("COc1cc2c(cc1OC)C1CN3CCCC3C(O)C1c1cc(OC)c(OC)cc1-2 (configuration not stated)")
"n"
>>> classification("CCOC(=O)/C(C#N)=C(N)/C(=N\\Nc1cccc(C(F)(F)F)c1)C(=O)OCC")
"n"
>>> classification("COC(=O)N1C=CC2=C(C)C3Nc4ccccc4C3C(C)=C2C1 (configuration not stated)")
"n"
>>> classification("Cc1cc(Cl)ccc1NC(=O)/C(Cl)=C(/Cl)C(=O)O")
"n"
>>> classification("COc1ccc(/C=C2\\C[C@H]3[C@@H]4CC=C5C[C@@H](OC(C)=O)CC[C@]5(C)[C@H]4CC[C@]3(C)C2=O)cc1OC")
"y"
>>> classification("COc1ccc2c(c1)C(N)=C(c1ccccc1)C2=O")
"n"
>>> classification("O=C1c2cccc3c2C(=O)c2c(cccc21)OCCOCCOCCOCCO3")
"n"
>>> classification("CC(=O)OCC1OC(N2C(=S)N[C@H]([C@@H](O)[C@H](O)[C@H](O)CO)[C@H]2O)C(OC(C)=O)C(OC(C)=O)C1OC(C)=O (some centres not stated)")
"n"
>>> classification("COc1cc(/C=N\\O)nc(-c2ccccn2)c1")
"y"
>>> classification("CCCCN1C=CN2c3nc4cc(C)c(C)cc4n3C(C(=O)OC)=C(C(=O)OC)C12 (configuration not stated)")
"n"
>>> classification("COC(=O)C1=C(c2cc(OC)c(OC)c(OC)c2)OC(c2cc(OC)c(OC)c(OC)c2)C1 (configuration not stated)")
"n"
>>> classification("CSC(SC)=C1C(=O)NN=C1C")
"n"
>>> classification("COc1ccc2c(c1)[n+]([O-])c(C(=O)CC(=O)C(=O)Nc1cccc(C)c1C)c(C)[n+]2[O-]")
"n"
>>> classification("O=C1C=Cc2cscc21")
"n"
>>> classification("O=[N+]([O-])c1cccc2nccc(NCCCO)c12")
"n"
>>> classification("COc1cc(OC)c(CSCC(NC(=O)OCC2c3ccccc3-c3ccccc32)C(=O)O)c(OC)c1 (configuration not stated)")
"n"
>>> classification("CC(C)(C)c1ccc(CN2CCN(C(c3ccccc3)c3ccc(Cl)cc3)CC2)cc1 (configuration not stated)")
"n"
>>> classification("O=P(c1ccccc1)(c1ccccc1)C1CC=C(c2ccccc2)C2(CCCC2)C1 (configuration not stated)")
"n"
>>> classification("N#CI1OC(C(F)(F)F)(C(F)(F)F)c2ccccc21")
"n"
>>> classification("c1cc(Sc2nc(Sc3ccncc3)nc(Sc3ccncc3)n2)ccn1")
"n"
>>> classification("O=C(Cn1cc(F)c(=O)[nH]c1=O)C12CC3CC(CC(C3)C1)C2")
"n"
